Target: human mpl receptor (Homo sapiens)
Construct: IL-3 dependent clone of murine 32D cells transfected with the full-length c-Mpl; expressed in transfected cells; host or cells: IL-3 dependent clone of murine 32D cells
Sequence (P40238 26-635): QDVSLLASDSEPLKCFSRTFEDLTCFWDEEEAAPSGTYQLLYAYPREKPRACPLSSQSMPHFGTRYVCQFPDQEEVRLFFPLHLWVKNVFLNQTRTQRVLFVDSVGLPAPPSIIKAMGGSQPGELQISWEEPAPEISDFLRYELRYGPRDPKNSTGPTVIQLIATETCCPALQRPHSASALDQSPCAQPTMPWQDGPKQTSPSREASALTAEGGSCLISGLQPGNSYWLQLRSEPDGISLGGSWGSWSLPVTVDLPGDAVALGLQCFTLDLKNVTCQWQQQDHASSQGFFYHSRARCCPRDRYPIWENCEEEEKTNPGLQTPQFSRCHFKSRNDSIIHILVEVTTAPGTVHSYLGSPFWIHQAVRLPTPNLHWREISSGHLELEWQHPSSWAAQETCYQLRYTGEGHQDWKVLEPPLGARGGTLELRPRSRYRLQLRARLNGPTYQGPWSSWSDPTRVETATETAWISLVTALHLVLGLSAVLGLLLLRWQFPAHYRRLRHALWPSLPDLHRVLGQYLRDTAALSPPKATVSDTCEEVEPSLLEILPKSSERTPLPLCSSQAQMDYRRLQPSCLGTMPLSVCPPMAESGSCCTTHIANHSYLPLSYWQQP
Assay: TPO in vitro bioassay, mitogenic assay in IL-3 dependent murine 32D cells
Type: cell-based
Bridge positions count the residues as written; N and C are the ends. Ends that are not written are not given here.
Measure: in vitro bioactivity in words

Substance	Observed Result
peptide 14: Trp in each TMP monomer replaced with Cys, intramolecular disulfide bond between the two cysteines (IEGPTLRQCLAARAGGGGGGGGIEGPTLRQCLAARA; disulfide 9-31)	inactive
IEGPTLRQCLAARA-GGGGGGGG-IEGPTLRQCLAARA (IEGPTLRQCLAARAGGGGGGGGIEGPTRLQCLAARA) [compound 15]	inactive

###

target: human mpl receptor (Homo sapiens, UniProt P40238); construct: IL-3 dependent clone of murine 32D cells transfected with the full-length c-Mpl; expressed in transfected cells; host or cells: IL-3 dependent clone of murine 32D cells; experiment: TPO in vitro bioassay, mitogenic assay in IL-3 dependent murine 32D cells; format: cell-based; conditions: in terms of EC50; numerals indicate approximately 1 log of activity
Ends that are not written are not given here. PEG = not defined here
Measure: Relative Potency
Enter the number alone.

Known Relative Potency results, listed for orientation:
> print(dat)
                                  substance  observed.result
1  IEGPTLRQWLAARAARAALWQRLTPGEI [TMP C-C dimer, reference compound]              3.5
2  TMP-GGGC(PEG)GGGG-TMP (IEGPTLRQWLAARAGGGC(PEG)GGGGIEGPTLRQWLAARA; reading uncertain) [peptide 20]              5.0
3  IEGPTLRQALAARA-GGGGGGGG-IEGPTLRQALAARA (IEGPTLRQALAARAGGGGGGGGIEGPTLRQALAARA) [peptide 16]              0.5
4  IEGPTLRQWLAARA [TMP monomer, 14-residue TPO Mimetic Peptide (Cwirla et al.)]              1.0
5  TMP-GGGCGGGG-TMP (IEGPTLRQWLAARAGGGCGGGGIEGPTLRQWLAARA) [peptide 18]              4.0

Record summary for TMP-GPNG-TMP (IEGPTLRQWLAARAGPNGIEGPTLRQWLAARA) [peptide 13] : reported Relative Potency = 3.0

Record summary for TMP-GGGK(PEG)GGGG-TMP (IEGPTLRQWLAARAGGGK(PEG)GGGGIEGPTLRQWLAARA; reading uncertain) [peptide 19] : reported Relative Potency = 5.0

Record summary for TMP-GGGNGSGG-TMP (IEGPTLRQWLAARAGGGNGSGGIEGPTLRQWLAARA) [compound 21] : reported Relative Potency = 4.0

###

// values below are reported Relative Potency
Target: human mpl receptor (Homo sapiens, UniProt P40238)
Construct: IL-3 dependent clone of murine 32D cells transfected with the full-length c-Mpl; expressed in transfected cells; host or cells: IL-3 dependent clone of murine 32D cells
Sequence (P40238 26-635): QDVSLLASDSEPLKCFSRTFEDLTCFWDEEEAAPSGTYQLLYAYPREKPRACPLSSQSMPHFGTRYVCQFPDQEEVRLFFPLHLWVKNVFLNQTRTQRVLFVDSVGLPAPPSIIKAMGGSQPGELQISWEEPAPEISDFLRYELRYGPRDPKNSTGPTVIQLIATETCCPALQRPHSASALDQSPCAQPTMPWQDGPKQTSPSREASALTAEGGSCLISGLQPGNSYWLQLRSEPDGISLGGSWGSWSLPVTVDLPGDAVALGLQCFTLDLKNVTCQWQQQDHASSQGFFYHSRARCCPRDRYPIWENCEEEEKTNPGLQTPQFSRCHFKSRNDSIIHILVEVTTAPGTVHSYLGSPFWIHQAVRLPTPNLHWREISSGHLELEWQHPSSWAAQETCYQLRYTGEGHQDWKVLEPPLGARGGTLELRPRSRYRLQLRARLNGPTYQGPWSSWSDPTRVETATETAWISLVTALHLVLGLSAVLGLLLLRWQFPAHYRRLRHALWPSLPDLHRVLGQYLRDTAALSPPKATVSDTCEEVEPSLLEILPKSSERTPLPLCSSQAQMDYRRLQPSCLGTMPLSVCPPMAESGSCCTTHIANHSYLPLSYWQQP
Assay: TPO in vitro bioassay, mitogenic assay in IL-3 dependent murine 32D cells
Format: cell-based
Settings: in terms of EC50; numerals indicate approximately 1 log of activity
Bridge positions count the residues as written; N and C are the ends. Ends that are not written are not given here.
Enter the number alone.

Record summary for IEGPTLRQCLAARA-GGGGGGGG-IEGPTLRQCLAARA (IEGPTLRQCLAARAGGGGGGGGIEGPTRLQCLAARA) [compound 15] : reported Relative Potency = 0.5

Record summary for TMP-GGGKGGGG-TMP (IEGPTLRQWLAARAGGGKGGGGIEGPTLRQWLAARA) [peptide 17a] : reported Relative Potency = 4.0

Record summary for peptide 14: Trp in each TMP monomer replaced with Cys, intramolecular disulfide bond between the two cysteines (IEGPTLRQCLAARAGGGGGGGGIEGPTLRQCLAARA; disulfide 9-31) : reported Relative Potency = 0.5
